Target: h-GABAA α1β3γ2 (Homo sapiens, UniProt P14867+P18507)
Assay: Radioligand binding assay, [3H]Flumazenil competition, HEK293F membranes
Sorting guide: entries reporting Ki beneath 800 nM go in the YES pile, the rest go in the NO pile.

Compound: Fc1cccnc1C1=NCc2nnc(-c3cccnn3)n2-c2ccc(C(F)(F)F)c(Cl)c21
Class assignment: NO
--
Compound: Cc1nnc2n1-c1ccc(C(F)(F)F)cc1C(c1c(F)cccc1F)=NC2 [RE-B, reference compound]
Class assignment: YES
--
Compound: O=c1[nH]nc2n1-c1ccc(Br)c(Cl)c1C(c1ccccc1F)=NC2
Class assignment: YES
--
Compound: COc1ccc2c(c1Cl)C(c1c(F)cccc1F)=NCc1nnc(-c3cccnn3)n1-2
Class assignment: NO
--
Compound: Cc1nnc2n1-c1ccc(C3CC3)c(Cl)c1C(c1c(F)cccc1F)=NC2
Class assignment: NO
--
Compound: Fc1ccccc1C1=NCc2nnc(-c3cccnn3)n2-c2ccc(Br)c(Cl)c21
Class assignment: YES
--
Compound: Cc1nnc2n1-c1ccc(Cl)c(Cl)c1C(c1c(F)cccc1F)=NC2
Class assignment: YES
--
Compound: Fc1cccc(F)c1C1=NCc2nncn2-c2ccc(Br)c(Cl)c21
Class assignment: YES
